The reported measurements were obtained from the supplement of paper PMC10981050.

- Test system: OCI-AML2;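 further: after 48 h exposure read by CellTiter-Glo luminescence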
- TEST DESCRIPTION: cell viability relative to vehicle control; higher = less cytotoxic
- APPLIED CONDITIONS: 10 µM; SRSF2 genotype: wt/wt
Counter-ions that a name gives are not always drawn.
Threshold 90%: cell viability strictly smaller gives T, otherwise F.

// below: answered compounds
compound="COc1cc(O)c2c(c1)C(=O)c1cc(C)cc(O)c1C2=O [Rheochrysidin (Physcione)]" category_label=F
compound="COc1ccc(C[C@@H](C)NC[C@H](O)c2ccc(O)c(NC=O)c2)cc1 [Arformoterol Tartrate]" category_label=F
compound="OCCOCCN1CCN(C2=Nc3ccccc3Sc3ccccc32)CC1 [Quetiapine fumarate (Seroquel)]" category_label=T
compound="COc1ccc(CCCOC(Cn2ccnc2)c2ccc(OC)cc2)cc1 (stereo not given)" category_label=T

Ask | Please state whether cell viability is below 90% for CC(C)c1cccc(O)c(=O)c1
Reply | T

* * *

- Test system: OCI-AML2;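 further: after 48 h exposure read by CellTiter-Glo luminescence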
- TEST DESCRIPTION: cell viability relative to vehicle control; higher = less cytotoxic
- APPLIED CONDITIONS: 10 µM; SRSF2 genotype: P95H/wt
Where a name gives a salt, the structure may show the parent alone.
OBSERVATION TYPE: cell viability (%)
Please give a number only; it is taken to be in %.

Record excerpt, results attached:
compound="CS(=O)(=O)Nc1ccc([N+](=O)[O-])cc1Oc1ccccc1 [Nimesulide]" output_unit=% assay_result=101
compound=N#CC[C@H](C1CCCC1)n1cc(-c2ncnc3[nH]ccc23)cn1 output_unit=% assay_result=60.7
compound=CC(C)S(=O)(=O)c1ccc2nccc(Nc3ccc4scnc4c3)c2c1 output_unit=% assay_result=83.2
compound=CNC(=C[N+](=O)[O-])NCCSCc1csc(CN(C)C)n1 output_unit=% assay_result=92.9
compound=COc1cc2c(cc1OC(C)C)[C@H](c1ccc(Cl)cc1)N(c1ccc(N(C)C[C@H]3CC[C@H](N4CCN(C)C(=O)C4)CC3)cc1)C(=O)C2 output_unit=% assay_result=0.22

Ask | Would you kindly share the measured cell viability for COc1ccc2cc([C@H](C)C(=O)O)ccc2c1 [Naproxen Sodium] ?
Reply | 105

Ask | Would you kindly share the measured cell viability for C[C@@]12C[C@H](c3ccoc3)O[C@@]13C[C@H](OC3=O)[C@H]1[C@H]2C[C@@H]2C[C@H]1C(=O)O2 ?
Reply | 102

Ask | Would you kindly share the measured cell viability for C[S+](CC[C@H](N)C(=O)[O-])C[C@H]1O[C@@H](n2cnc3c(N)ncnc32)[C@H](O)[C@@H]1O (some centres not stated) ?
Reply | 129

Ask | Would you kindly share the measured cell viability for CO/N=C(/C(=O)N[C@@H]1C(=O)N2C(C(=O)OCOC(=O)C(C)(C)C)=C(C)CS[C@H]12)c1csc(N)n1 [Cefetamet pivoxil hydrochloride] ?
Reply | 107

Ask | Would you kindly share the measured cell viability for COC(=O)[C@@H]1[C@H]2C[C@H]3c4[nH]c5ccccc5c4CCN3C[C@@H]2CC[C@@H]1O [Yohimbine hydrochloride (Antagonil)] ?
Reply | 94.9

Ask | Would you kindly share the measured cell viability for CCCCOc1ccc(C(=O)Nc2ccc(F)cc2F)cc1 ?
Reply | 85.7

Ask | Would you kindly share the measured cell viability for C#Cc1cccc(Nc2ncnc3cc(OCCOC)c(OCCOC)cc23)c1 ?
Reply | 77.9

Ask | Would you kindly share the measured cell viability for Cc1ncc([N+](=O)[O-])n1CC(C)O (configuration not stated) ?
Reply | 114

Ask | Would you kindly share the measured cell viability for COc1cc2c(c(O)c1OC)-c1c(cc(OC)c(OC)c1OC)C[C@@H](C)[C@@H](C)C2 ?
Reply | 91.7

Ask | Would you kindly share the measured cell viability for COc1cc(C=O)c([N+](=O)[O-])cc1OC ?
Reply | 111

Ask | Would you kindly share the measured cell viability for Cc1cccc(-c2nn3c(c2-c2ccnc4ccc(C(N)=O)cc24)CCC3)n1 ?
Reply | 108

Ask | Would you kindly share the measured cell viability for S=C(N/N=C1/CCCc2cccnc21)N1CCN(c2ccccn2)CC1 ?
Reply | 22.8

Ask | Would you kindly share the measured cell viability for CN(C)CCC=C1c2ccccc2C(C)(C)c2ccccc21 [Melitracen hydrochloride] ?
Reply | 61.3

Ask | Would you kindly share the measured cell viability for O=C(O)Cc1ccccc1Nc1c(Cl)cccc1Cl [Diclofenac Potassium] ?
Reply | 95.3

Ask | Would you kindly share the measured cell viability for O=C(c1cc(Cc2n[nH]c(=O)c3ccccc23)ccc1F)N1CCN(C(=O)C2CC2)CC1 ?
Reply | 44.6

Ask | Would you kindly share the measured cell viability for COc1ccc(-c2cc(=O)c3c(O)cc(O)cc3o2)cc1 ?
Reply | 88.7
